The compounds listed here are annotated with their Activity.
molecular target: UniProt:Q60795; test: Activation of Nrf2 in mouse Hepa1c1c7 cells assessed as increase in NQO1 activity at 1.6 uM; format: cell-based; details: filed as activator
Sequence (Q60795 whole entry): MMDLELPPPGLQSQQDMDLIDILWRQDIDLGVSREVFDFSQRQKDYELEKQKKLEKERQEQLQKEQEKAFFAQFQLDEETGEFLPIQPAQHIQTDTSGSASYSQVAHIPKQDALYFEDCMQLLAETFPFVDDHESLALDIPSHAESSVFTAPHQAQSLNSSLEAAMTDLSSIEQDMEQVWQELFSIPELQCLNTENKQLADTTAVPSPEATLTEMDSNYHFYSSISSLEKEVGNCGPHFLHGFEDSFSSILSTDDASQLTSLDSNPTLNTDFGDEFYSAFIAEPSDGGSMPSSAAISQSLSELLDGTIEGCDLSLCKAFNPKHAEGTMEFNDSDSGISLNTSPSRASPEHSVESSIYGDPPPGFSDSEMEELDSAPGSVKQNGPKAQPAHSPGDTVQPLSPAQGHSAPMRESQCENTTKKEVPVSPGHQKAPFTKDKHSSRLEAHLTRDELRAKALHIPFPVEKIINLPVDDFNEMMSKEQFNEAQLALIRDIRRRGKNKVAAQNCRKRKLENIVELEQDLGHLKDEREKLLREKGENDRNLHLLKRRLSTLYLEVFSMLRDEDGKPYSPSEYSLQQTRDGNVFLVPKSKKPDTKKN
// keep it numeric: no unit symbol after the value

Take a look at these entries with their results.
> print(dat)
                               smilesstring  measvalue
1  NS(=O)(=O)c1ccc(-n2c(SCC(=O)Nc3cccnc3Cl)nc3c(I)cc(I)cc3c2=O)cc1          1
2  NS(=O)(=O)c1ccc(-n2c(SCC(=O)Nc3ccc(Cl)cn3)nc3c(I)cc(I)cc3c2=O)cc1       0.98
3  NS(=O)(=O)c1ccc(-n2c(SCC(=O)Nc3ccc(F)cc3)nc3c(I)cc(I)cc3c2=O)cc1       0.99

Next up:
Activity for NS(=O)(=O)c1ccc(-n2c(SCC(=O)Nc3ccncc3)nc3c(I)cc(I)cc3c2=O)cc1 ?
1.02
